test: chemical genetic growth profiling, strain panel (AID 1159580);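 note: tested at 20 µM; growth read once vehicle control cultures reached saturation at 30 °C; 1 = growth at the plate median or of vehicle wells; lower values mean less growth of the strain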; details: S. cerevisiae deletion strains, growth OD, locus YNR030W, strain Alg12, stronger effect = lower value
About 2,000 (36%) of roughly 5,500 compounds were called active. Inconclusive results (about 18%) are left out. The list shows a part of the results.
READOUT_KIND: normalized growth
Would you mind answering with just the numeric figure?

Recorded results for 5 compounds are shown here.
O=[N+]([O-])c1ccc(Oc2c(Cl)cccc2Cl)c(Cl)c1Oc1c(Cl)cccc1Cl : 0.969
COC(OC)c1ccc(C#N)c(=S)[nH]1 : 0.992
O=[N+]([O-])c1cnc2ccccn12 : 1.02
O=C(O)CCc1nc(-c2ccccc2)c(-c2ccccc2)o1 : 1
O=C1CC(=O)CC(c2ccc(Cl)c(Cl)c2)C1 : 1

query: What value of measured normalized growth is listed for "COc1ccccc1NC(=S)NCCC(=O)O" ?
result: 1.01

query: What value of measured normalized growth is listed for "O=C(NCCCCO)OCC1c2ccccc2-c2ccccc21" ?
result: 0.963

query: What value of measured normalized growth is listed for "CCOC(=O)c1nnc2cc(C)nn2c1C" ?
result: 1.03

query: What value of measured normalized growth is listed for "CCn1nc(C)cc1C(=O)O" ?
result: 1.02

query: What value of measured normalized growth is listed for "N#Cc1c(Cl)cccc1N1CCC(C(=O)NC(=O)Nc2ccc(Cl)cc2)CC1" ?
result: 1.03

query: What value of measured normalized growth is listed for "Cn1c(SCC(=O)N2CCOCC2)nnc1-c1ccc2ncccc2c1" ?
result: 1.03
